- System: TAG
- assay info: TAG lipid buildup inhibition with viability readout – cell-based, panel, Nile Red and DAPI fluorescence, H9c2, dose response (AID 651630);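 also: cells exposed to compound overnight before fixation and staining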
- measurement conditions: H9c2 cells, Nile Red TAG fluorescence, oleic acid, mean of runs
Activity calls are given as the source filed them.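 The calls were made as follows: active = lipid-stain IC50 at or below a set limit, with nuclear-stain toxicity IC50 at least five times higher; inactive = the rest.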
# valid calls are active, inactive; nothing else

Solved entries:
* COc1ccc2cc3cc(C(=O)NCCc4ccc(OC)c(OC)c4)oc3nc2c1 | inactive
* Cc1cc(C)c(NC(=O)CSc2nc3ccc(NC(=O)CSc4nnnn4Cc4ccccc4)cc3s2)c(C)c1 | inactive
* Cc1c(C(=O)N2CC3(CC(c4cccc(NC(=O)CC(c5ccccc5)c5ccccc5)c4)=NO3)C[C@@H]2C(N)=O)cc([N+](=O)[O-])cc1[N+](=O)[O-] (some centres undefined) | active
* CCOc1ccc(OCC)c(NC(=O)CN(c2ccc(C)cc2)S(=O)(=O)c2c(C)noc2C)c1 | inactive
* S=C(N/N=C/c1cccs1)NC1CC2CCC1C2 (centres undefined) | active
* CN(C)CCCn1c(=O)n(C2CCCCC2)c(=O)c2c3c(sc21)CCCCC3 | inactive

Just curious, what result did NC(Cc1ccc(C(F)(F)F)cc1)c1csc(Nc2nncc3ccccc23)n1 (centres undefined) get here?
inactive

Recorded call for C=CC[C@@H](CC(=O)N(CCO)Cc1ccccc1)C(=O)N[C@H](COC(=O)[C@@H](CC=C)CC(=O)OC(C)(C)C)C(C)(C)C ?
active

Could you check what this test reported for O=C(Nc1cccc2ncccc12)c1ccc(Cl)cc1 ?
active

====

- Test system: TAG
- assay info: TAG lipid buildup inhibition with viability readout – cell-based, panel, Nile Red and DAPI fluorescence, H9c2, dose response (AID 651630);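 also: cells exposed to compound overnight before fixation and staining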
- measurement conditions: H9c2 cells, Nile Red TAG fluorescence, oleic acid, mean of runs
Active and inactive are the calls of the source.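 The calls were made as follows: active = lipid-stain IC50 at or below a set limit, with nuclear-stain toxicity IC50 at least five times higher; inactive = the rest.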
test readout: IC50

A selection of reference data follows.
- CC(=O)O[C@H]1C(=O)[C@]2(C)[C@H]([C@H](OC(=O)c3ccccc3)[C@]3(O)C[C@H](OC(=O)[C@H](O)[C@@H](NC(=O)c4ccccc4)c4ccccc4)C(C)=C1C3(C)C)[C@]1(OC(C)=O)CO[C@@H]1C[C@@H]2O: > 25 µM (inactive)
- CCN1CCN(Cc2ccc(NC(=O)c3cc(NC(=O)C(=O)c4c[nH]c5ccccc45)cc(OC)c3)cc2C(F)(F)F)CC1: 5.76 µM
- Cc1cccc2c(N=Nc3ccc(S(=O)(=O)Nc4ccc(Cl)cc4)cc3[N+](=O)[O-])c(O)[nH]c12: 12.2 µM
- Cc1ccc(NC(=O)c2cc([N+](=O)[O-])ccc2NCc2cccnc2)cc1Cl: 14 µM

For each of the items listed, what is its IC50?
1. COc1cccc(C2c3c(C)nn(-c4ccc([N+](=O)[O-])cc4)c3N=C3C(=O)Nc4ccccc4N32)c1 (stereo not drawn)
2. CCc1ccc(/C=N/NC(=O)c2cc(C3CC3)nc3ccc(Br)cc23)s1
3. COc1cc(NC(=O)Nc2nc(C(N)CCc3ccccc3)cs2)cc(OC)c1OC (stereo not drawn)
4. Cc1ccccc1OCCNc1cc(N2CC(C)NC(C)C2)ccc1[N+](=O)[O-] (stereo not drawn)

1: 7.79 µM; 2: > 25 µM (inactive); 3: 6.55 µM; 4: 13.1 µM

====

For each entry below, report its IC50 cytotoxicity (DAPI nuclear signal decrease) value.
- System: DAPI
- assay info: TAG lipid buildup inhibition with viability readout – cell-based, panel, Nile Red and DAPI fluorescence, H9c2, dose response (AID 651630);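 also: cells exposed to compound overnight before fixation and staining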
- measurement conditions: H9c2 cells, DAPI nuclear fluorescence (cytotoxicity counter-readout), oleic acid, run 2

* COc1ccccc1NC1=NC(c2ccc(Cl)cc2)N=C(N)N1 (centres undefined) | > 25 µM
* Cc1cc(C)n(-c2nc3c(c(=O)[nH]c(=O)n3C)n2CC(O)COc2ccc(Cl)cc2Cl)n1 (centres undefined) | > 25 µM
* CCCSc1ccc2nc(NC(=O)OC)[nH]c2c1 | > 25 µM
* Cc1ccc(C(=O)NCCN2C3=NC[C@H](C(C)C)N3C[C@H]2Cc2ccc(O)cc2)cc1Br | > 25 µM
* CSc1cc(-c2ccccc2)n(Cc2c(Cl)cccc2Cl)c(=O)c1C#N | > 25 µM
* COc1ccc(N=C2C(=Nc3ccc(OC)cc3)N(c3ccc(OC)cc3)C(=S)N2C(=O)c2ccc(OC)cc2)cc1 | > 25 µM
* C#CCN(C[C@H]1[C@H](OC(=O)NCCCCCC)[C@H](OC(=O)NCCCCCC)C[C@@H](C(=O)OC)[C@H]1C(=O)OC)S(=O)(=O)c1ccc(C)cc1 | > 25 µM
* COc1ccc(S(=O)(=O)N2N=C(C)Oc3ccccc3C2=O)cc1 | > 25 µM

# batch size: 3; output IC50 cytotoxicity (DAPI nuclear signal decrease) per entry
1. CCN(CC)CCNc1ncnc2c1sc1nc(N3CCCC3)c3c(c12)CC(C)(C)OC3
2. Cn1c(N)c(C(=O)COC(=O)c2ccc([N+](=O)[O-])o2)c(=O)n(C)c1=O
3. NC(N)=Nc1ccc(C=C2C=Cc3ccccc32)cc1

> 25 µM
19.8 µM
24.5 µM
